- measuredOn: Liver microsome
- runDescription: Drug metabolism in human liver microsomes assessed as substrate inhibition of IRI-O-5-monoglucuronide formation incubated for 5 mins prior to UDPGA addition measured after 90 mins by Eadie-Hoftsee plot analysis
- Format: ADME
quantityMeasured: Ki (µM)

> print(dat)
                                givensmiles  datavalue
1  O=c1c(-c2ccc(O)cc2)coc2cc3c(c(O)c12)OCO3       96.9

====

- System: Liver microsome
- runDescription: Drug metabolism in human liver microsomes assessed as IRI-O-4'-monoglucuronide formation incubated for 5 mins prior to UDPGA addition measured after 90 mins by Eadie-Hoftsee plot analysis
- Assay type: ADME
- recordedConditions: 1.5 h
quantityMeasured: Km (µM)

> print(dat)
                                givensmiles       measuredon  datavalue
1  O=c1c(-c2ccc(O)cc2)coc2cc3c(c(O)c12)OCO3  Liver microsome       64.7

====

- measuredOn: UDP-glucuronosyltransferase 1A8 (Homo sapiens, UniProt Q9HAW9)
- Sequence (Q9HAW9 whole entry): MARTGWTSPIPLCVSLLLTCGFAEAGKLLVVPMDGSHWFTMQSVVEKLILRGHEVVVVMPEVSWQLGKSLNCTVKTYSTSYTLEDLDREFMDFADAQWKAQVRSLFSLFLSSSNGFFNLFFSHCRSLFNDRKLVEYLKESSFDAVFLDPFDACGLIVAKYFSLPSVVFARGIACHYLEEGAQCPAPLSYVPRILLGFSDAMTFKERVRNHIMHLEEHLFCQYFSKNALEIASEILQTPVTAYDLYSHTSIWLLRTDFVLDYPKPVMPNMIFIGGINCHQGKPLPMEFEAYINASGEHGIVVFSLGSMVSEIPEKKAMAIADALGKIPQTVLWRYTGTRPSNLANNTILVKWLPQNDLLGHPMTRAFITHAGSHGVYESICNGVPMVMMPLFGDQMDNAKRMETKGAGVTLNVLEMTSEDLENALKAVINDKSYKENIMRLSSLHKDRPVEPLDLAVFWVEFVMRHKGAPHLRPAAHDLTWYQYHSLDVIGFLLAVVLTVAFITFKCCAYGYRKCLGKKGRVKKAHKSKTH
- runDescription: Substrate inhibition of human recombinant UGT1A8 assessed as IRI-O-5-monoglucuronide formation incubated for 5 mins prior to UDPGA addition measured after 90 mins by Eadie-Hoftsee plot analysis
- Format: ADME
quantityMeasured: Ki (µM)

> print(dat)
                                givensmiles  datavalue
1  O=c1c(-c2ccc(O)cc2)coc2cc3c(c(O)c12)OCO3       22.6

====

- runDescription: Drug metabolism in pig liver microsomes assessed as IRI-O-5-monoglucuronide formation incubated for 5 mins prior to UDPGA addition measured after 90 mins by Eadie-Hoftsee plot analysis
- Format: ADME, Sus scrofa
- recordedConditions: 1.5 h
quantityMeasured: Km

> print(dat)
                                givensmiles  datavalue
1  O=c1c(-c2ccc(O)cc2)coc2cc3c(c(O)c12)OCO3    16.8 µM
